// activity change, negative = inhibition lookup, one value per entry
- Assay overview: AP1 Signaling Pathway (AID 357);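 note: ME-180 reporter cells stimulated with EGF at its EC50 level; % is set by controls: 0 for no effect and ±100 for the full control effect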
- Reported conditions: ME-180 (cervical carcinoma) AP-1-bla reporter, EGF-induced, beta-lactamase ratio, 5 h; at 7.69 µM (top of the series) unless noted
- Protocol: NCGC Assay Overview: Activator protein-1 (AP-1), a transcription factor, plays an important role in tumor genesis by regulating genes involved in cell proliferation, differentiation, apoptosis, and angiogenesis. AP-1 activity is induced by a complex network of signaling pathways that involves extracellular signals, such as growth factors. […] Library compounds were measured for their ability to modulate positively or negatively the action of EC50 EGF on reporter gene activity. […]
Results filed as inconclusive are left out.

Line notation	activity change, negative = inhibition [%]
C/C(=N/Nc1ccc2ccccc2n1)c1ccccc1O	5.21
O=C(O)[C@@H](O)[C@@H](O)[C@H](O)[C@H](O)CO	-1.8
Oc1c(CN2CCN(c3ccccc3)CC2)cc(Br)c2cccnc12	3.27
N[C@@H](CNO)C(=O)O	7.51
Nc1nc(SCC(=O)O)[nH]c(=O)c1N	4.37
O=C1C2=C(Nc3cc([N+](=O)[O-])ccc3N2)O[C@@H]1c1ccc([C@H]2OC3=C(Nc4ccc([N+](=O)[O-])cc4N3)C2=O)cc1	-12.2
CN(Cc1cccc2ccccc12)Cc1cccc2ccccc12	6.28
O=C(Nc1cccc2cccnc12)[C@@H]1[C@@H](C(=O)O)[C@H]2CC[C@@H]1O2	6.33
O=C(O)[C@@H]1CS[C@@]2(CCCN(Cc3ccccc3)C2)N1	8.03
Cc1sc2ccccc2[n+]1CCC(=O)O	3.36
Cn1ncc2c(Nc3cccc(Cl)c3)nc(Nc3cccc(Cl)c3)nc21	-0.941

* * *

- System: TAB165
- Assay overview: qHTS profiling for inhibitors of Plasmodium falciparum proliferation (AID 504749); note: nearly all actives have a fitted effect of over 60% in size
- Reported conditions: P. falciparum in erythrocytes, SYBR Green DNA, 72 h; series mostly up to 28.7 µM
Inconclusive results are not listed. Calls of active or inactive are those of the source. Calls follow the shape of the dose curve; as a rule, active = well fitted inhibition curve with a large enough effect; inconclusive = small, poorly fitted or top-dose-only effect; inactive = flat fitted curve, though single readings scatter.
Possible outcomes: True = active, False = inactive

Molecule	Class assignment
NS(=O)(=O)c1cc2c(cc1Cl)N[C@H](Cc1ccccc1)NS2(=O)=O	False
CC1(C)S[C@@H]2[C@H](NC(=O)Cc3ccccc3)C(=O)N2[C@@H]1C(=O)O	False
O=C(O)[C@@H](O)[C@@H](O)[C@H](O)C(=O)CO	False
CN1[C@@H]2CC(OC(=O)[C@@H](CO)c3ccccc3)C[C@@H]1[C@H]1O[C@H]12 (stereo partly drawn)	False
C(=C/c1ccccc1)/CN1CCN(C(c2ccccc2)c2ccccc2)CC1	False
Cc1c(C(=O)O)c(O)cc2c1C(=O)c1c(O)c([C@H]3O[C@H](CO)[C@@H](O)[C@H](O)[C@H]3O)c(O)c(O)c1C2=O	False
CC(C)(C)c1ccc(CN2CCN([C@H](c3ccccc3)c3ccc(Cl)cc3)CC2)cc1	True
Cc1cn([C@H]2C[C@H](N=[N+]=[N-])[C@H](CO)O2)c(=O)[nH]c1=O	False
Cc1onc(-c2c(F)cccc2Cl)c1C(=O)N[C@@H]1C(=O)N2[C@H]1SC(C)(C)[C@H]2C(=O)O	False
CO/N=C(\C(=O)N[C@@H]1C(=O)N2C(C(=O)[O-])=C(C[N+]3(C)CCCC3)CS[C@@H]12)c1csc(N)n1	False
C[C@H]1C[C@@H]2[C@H]3CCC4=CC(=O)C=C[C@@]4(C)[C@@]3(Cl)[C@@H](O)C[C@]2(C)[C@]1(OC(=O)c1ccco1)C(=O)CCl	True
OC[C@H](S)CS	False
O=C(O)[C@@H](S)[C@H](S)C(=O)O	True

# credit: PubChem BioAssay (NCATS)
